Test: Liver microsomes metabolic stability, rat
Details: rat, liver microsomes
Parameter: half-life at 1 μM (min)

• O=C(c1ccc(F)cc1)C1CCN(CCn2c(=O)[nH]c3ccccc3c2=O)CC1 [Ketanserin, ketanserin, reference compound] = 15.6

----------
Test: Liver microsomes metabolic stability, human
Conditions: human, liver microsomes
Parameter: half-life at 1 μM (min)

- O=C(c1ccc(F)cc1)C1CCN(CCn2c(=O)[nH]c3ccccc3c2=O)CC1 [Ketanserin, ketanserin, reference compound]: 43.9

----------
Experiment: Solubility of 1a
Format: physicochemical
Details: distilled water, pH 7.4, water
Parameter: solubility (µg/mL)

* CC[C@H](C)[C@@H]([C@@H](CC(=O)N1CCC[C@H]1[C@H](OC)[C@@H](C)C(=O)N1CC(c2ccccc2)C1)OC)N(C)C(=O)[C@@H](NC(=O)C(C(C)C)N(C)C)C(C)C (stereo in doubt) | 346

----------
Test: Liver microsomes metabolic stability, human
Details: human, microsomes
Parameter: half-life at 1 μM (min)

* CC[C@H](C)[C@@H]([C@@H](CC(=O)N1CCC[C@H]1[C@H](OC)[C@@H](C)C(=O)N1CC(c2ccccc2)C1)OC)N(C)C(=O)[C@@H](NC(=O)C(C(C)C)N(C)C)C(C)C (stereo in doubt) | 18.7

----------
Test: Liver microsomes metabolic stability, mouse
Conditions: mouse, liver microsomes
Parameter: half-life at 1 μM (min)

- O=C(c1ccc(F)cc1)C1CCN(CCn2c(=O)[nH]c3ccccc3c2=O)CC1 [Ketanserin, ketanserin, reference compound]: 13.5

----------
Test: Liver microsomes metabolic stability, mouse
Settings: mouse, microsomes
Parameter: half-life at 1 μM (min)

• CC[C@H](C)[C@@H]([C@@H](CC(=O)N1CCC[C@H]1[C@H](OC)[C@@H](C)C(=O)N1CC(c2ccccc2)C1)OC)N(C)C(=O)[C@@H](NC(=O)C(C(C)C)N(C)C)C(C)C (stereo in doubt) = 1.83
